# System: pulmonary fibrosis
# Assay protocol: Pulmonary toxicity (pulmonary fibrosis) in mice
# Protocol conditions: ICR mice, 5 mg/kg i.p. once a day for 10 days, 5 weeks observation; mice with fibrosis/total
Each entry below carries its recorded Incidence: Number of mice with pulmonary fibrosis.

INSERT INTO assay_data (molecule, measurement_target, experimental_value) VALUES
  ('CC[N+](CC)(CCCNC(=O)c1csc(-c2csc(CCNC(=O)C(NC(=O)C(C)C(O)C(C)NC(=O)C(NC(=O)c3nc(C(CC(N)=O)NCC(N)C(=O)NCCCNC(C)c4ccccc4)nc(N)c3C)C(OC3OC(CO)C(O)C(O)C3OC3OC(CO)C(O)C(OC(N)=O)C3O)c3cnc[nH]3)C(C)O)n2)n1)CCCN(Cc1ccccc1)Cc1ccccc1 (centres unmarked) [Compound 55]', 'pulmonary fibrosis', '0/9'),
  ('Cc1c(N)nc(C(CC(N)=O)NCC(N)C(=O)NCCCN(C)CCCNCCc2ccc(Cl)cc2)nc1C(=O)NC(C(=O)NC(C)C(O)C(C)C(=O)NC(C(=O)NCCc1nc(-c2nc(C(=O)NCCCN(C)CCCNCCc3ccc(Cl)cc3)cs2)cs1)C(C)O)C(OC1OC(CO)C(O)C(O)C1OC1OC(CO)C(O)C(OC(N)=O)C1O)c1cnc[nH]1 (centres unmarked) [Compound 45]', 'pulmonary fibrosis', '0/9'),
  ('Cc1c(N)nc(C(CC(N)=O)NCC(N)C(=O)NCCCNC(C)c2ccccc2)nc1C(=O)NC(C(=O)NC(C)C(O)C(C)C(=O)NC(C(=O)NCCc1nc(-c2nc(C(=O)NCCCN(C)CCCNCc3ccc(Cl)cc3)cs2)cs1)C(C)O)C(OC1OC(CO)C(O)C(O)C1OC1OC(CO)C(O)C(OC(N)=O)C1O)c1cnc[nH]1 (centres unmarked) [Compound 39]', 'pulmonary fibrosis', '2/9');

### Prompt Look up and report measured Incidence: Number of mice with pulmonary fibrosis for this entry: CCCCN(CCCC)CCCNC(=O)C(N)CNC(CC(N)=O)c1nc(N)c(C)c(C(=O)NC(C(=O)NC(C)C(O)C(C)C(=O)NC(C(=O)NCCc2nc(-c3nc(C(=O)NCCCNC(C)c4ccccc4)cs3)cs2)C(C)O)C(OC2OC(CO)C(O)C(O)C2OC2OC(CO)C(O)C(OC(N)=O)C2O)c2cnc[nH]2)n1 (centres unmarked) [Compound 34]
### Response 0/8

### Prompt Let me know recorded Incidence: Number of mice with pulmonary fibrosis for Cc1c(N)nc(C(CC(N)=O)NCC(N)C(=O)NCCC[N+](C)(CCCN(Cc2ccccc2)Cc2ccccc2)Cc2ccccc2)nc1C(=O)NC(C(=O)NC(C)C(O)C(C)C(=O)NC(C(=O)NCCc1nc(-c2nc(C(=O)NCCC[N+](C)(CCCN(Cc3ccccc3)Cc3ccccc3)Cc3ccccc3)cs2)cs1)C(C)O)C(OC1OC(CO)C(O)C(O)C1OC1OC(CO)C(O)C(OC(N)=O)C1O)c1cnc[nH]1 (centres unmarked) [Compound 49] , thanks.
### Response 0/3

### Prompt Identify measured Incidence: Number of mice with pulmonary fibrosis corresponding to Cc1c(N)nc(C(CC(N)=O)NCC(N)C(=O)NCCCNC(C)c2ccccc2)nc1C(=O)NC(C(=O)NC(C)C(O)C(C)C(=O)NC(C(=O)NCCc1nc(-c2nc(C(=O)NCCCN(C)CCCN(Cc3ccc(OCc4ccccc4)c(OCc4ccccc4)c3)Cc3ccc(OCc4ccccc4)c(OCc4ccccc4)c3)cs2)cs1)C(C)O)C(OC1OC(CO)C(O)C(O)C1OC1OC(CO)C(O)C(OC(N)=O)C1O)c1cnc[nH]1 (centres unmarked) [Compound 64]
### Response 0/9

### Prompt For the molecule CCCCCCCCNC(=O)C(N)CNC(CC(N)=O)c1nc(N)c(C)c(C(=O)NC(C(=O)NC(C)C(O)C(C)C(=O)NC(C(=O)NCCc2nc(-c3nc(C(=O)NCCC[N+](CC)(CC)CCCN(Cc4ccccc4)Cc4ccccc4)cs3)cs2)C(C)O)C(OC2OC(CO)C(O)C(O)C2OC2OC(CO)C(O)C(OC(N)=O)C2O)c2cnc[nH]2)n1 (centres unmarked) [Compound 56] , give its reported Incidence: Number of mice with pulmonary fibrosis.
### Response 0/9

### Prompt Identify Incidence: Number of mice with pulmonary fibrosis associated with the molecule CCCCN(CCCC)CCCNC(=O)C(N)CNC(CC(N)=O)c1nc(N)c(C)c(C(=O)NC(C(=O)NC(C)C(O)C(C)C(=O)NC(C(=O)NCCc2nc(-c3nc(C(=O)NCCCN(C)CCCNCC4CCCCCCC4)cs3)cs2)C(C)O)C(OC2OC(CO)C(O)C(O)C2OC2OC(CO)C(O)C(OC(N)=O)C2O)c2cnc[nH]2)n1 (centres unmarked) [Compound 58]
### Response 0/9
